Values were extracted from PubChem BioAssay AID1851.

Target: Cytochrome P450 2C19 (Homo sapiens) (UniProt P33261)
Sequence (P33261 whole entry, looked up): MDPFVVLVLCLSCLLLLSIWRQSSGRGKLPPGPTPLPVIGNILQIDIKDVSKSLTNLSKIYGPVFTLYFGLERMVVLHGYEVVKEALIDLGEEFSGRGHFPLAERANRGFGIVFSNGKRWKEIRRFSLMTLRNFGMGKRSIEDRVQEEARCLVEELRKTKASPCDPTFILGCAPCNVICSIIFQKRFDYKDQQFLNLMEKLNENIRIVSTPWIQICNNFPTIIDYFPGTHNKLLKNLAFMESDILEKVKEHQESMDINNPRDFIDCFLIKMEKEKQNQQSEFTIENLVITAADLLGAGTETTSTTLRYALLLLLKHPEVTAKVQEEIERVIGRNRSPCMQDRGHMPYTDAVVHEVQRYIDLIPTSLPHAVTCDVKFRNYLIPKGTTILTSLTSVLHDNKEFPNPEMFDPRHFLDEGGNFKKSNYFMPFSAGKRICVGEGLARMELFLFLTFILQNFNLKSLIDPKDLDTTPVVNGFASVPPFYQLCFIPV
Assay: Cytochrome panel assay with activity outcomes
Settings: recombinant CYP, pro-luciferin dealkylation, luminescence, p450-cyp2c19; series mostly up to 57.1 µM
The whole screen tested about 16,000 compounds, of which about 5,800 (36%) were called active. Roughly 23% stayed inconclusive and do not appear here. Some of the results follow.
measuredProperty: AC50

Example results:
CCOC(=O)c1nnn(-c2nonc2N)c1-c1ccccc1; 2.82 µM (active)
CCOC(=O)c1sc(C)c(C(=O)NCC(C)(C)CN(C)C)c1N; 28.2 µM (active)
Cc1cc(C)c(C(N)=O)c(NC(=O)Nc2ccccc2)n1; inactive
CCc1nnc(NC(=O)C2Cc3ccccc3CN2S(=O)(=O)c2ccc(C)cc2)s1 (configuration not stated); 0.631 µM (active)

Entry under review: CN=C1N[C@H](c2ccccc2)N(c2ccccc2)S1 . Reported AC50?
inactive

Next record, please: Nc1nonc1-n1nncc1-c1ccccc1
6.31 µM (active)

Same question for Clc1ccc(-c2ccnc(Oc3cc(Cl)ccc3Cl)n2)cc1 please.
0.316 µM (active)

Moving on to the next compound: CCOC(=O)c1ccccc1N/C=C1\CCCCC1=O
22.4 µM (active)

Next up: Cc1ccc2nc(SCc3nnc(-c4ccccc4[N+](=O)[O-])o3)c(C#N)cc2c1
0.794 µM (active)

Quick one: CC(C(=O)NCc1ccc2c(c1)OCO2)N1c2cccc3cccc(c23)S1(=O)=O (configuration not stated)
0.794 µM (active)

Then this compound: Cc1nonc1NC(=O)N1CCCC1
inactive

Entry to check: Cc1c(C(=O)N2CCCCCC2)nnn1-c1nonc1N
7.94 µM (active)

###

Biological target: Cytochrome P450 2C19 (Homo sapiens) (UniProt P33261)
Assay: Cytochrome panel assay with activity outcomes
Conditions: recombinant CYP, pro-luciferin dealkylation, luminescence, p450-cyp2c19; series mostly up to 57.1 µM
About 5,800 (36%) of roughly 16,000 compounds were called active. Roughly 23% stayed inconclusive and do not appear here. Calls follow the shape of the dose curve; as a rule, active = well fitted curve in the direction sought with a large enough effect; inconclusive = small, poorly fitted or top-dose-only effect, or effect the other way; inactive = no such curve, though single readings can be large or run the other way. The list shows a part of the results.
In this exercise, the only acceptable responses are active, inactive

Cc1cc(NC(=O)Nc2ccc(F)cc2)no1; active
CSC1=C(C#N)C(c2ccccc2Cl)C2=C(N1)c1ccccc1C2=O (configuration not stated); active
COC(=O)c1ccc(C23CC2(C(NP(=O)(c2ccccc2)c2ccccc2)c2ccccc2)C3)cc1 (configuration not stated); active

Which outcome was assigned to COc1ccc(CO/N=C/c2c(C)[nH]c(=O)[nH]c2=O)cc1 in this test?
inactive

Now consider COc1ccc(-c2nc(C(=O)N3CCN(C)CC3)sc2-c2ccc(OC)cc2)cc1 .
inactive

###

Biological target: Cytochrome P450 2C19 (Homo sapiens) (UniProt P33261)
Assay: Cytochrome panel assay with activity outcomes
Settings: recombinant CYP, pro-luciferin dealkylation, luminescence, p450-cyp2c19; series mostly up to 57.1 µM
The campaign covered roughly 16,000 compounds. About 5,800 (36%) were called active. Inconclusive results (about 23%) are left out. The list shows a part of the results.
measuredProperty: AC50

Here's what some known entries look like.
COc1ccc(C(=O)NC(=S)NC(C)(C)C)cc1Br; 3.55 µM (active)
CCC[C@@H]1O[C@@H]2C[C@@H]3[C@H]4CCC5=CC(=O)C=C[C@@]5(C)[C@H]4[C@H](O)C[C@@]3(C)[C@@]2(C(=O)CO)O1; inactive
O=C(N/N=C/c1cccnc1)c1ccc([N+](=O)[O-])cc1; inactive
NCC[C@H]1CCC[C@H](CCN)N1; inactive
Cn1ncc(C#N)c1/N=C/N1CCCCCC1; 14.1 µM (active)

Query AC50 on Cytochrome P450 2C19 (Homo sapiens) (UniProt P33261) for O=C(Nc1ccccc1)N1CCC2(CC1)CCN(C(=O)c1cnccn1)CC2
inactive

Then this molecule: COC(=O)Nc1nc2ccc(C(=O)c3ccccc3)cc2[nH]1
inactive

Now the molecule Cn1cccc1C(=O)N1CCC2(CC1)CCN(c1ccccn1)CC2
inactive

Ok, now Cc1ccc(C(=N)c2ccccc2Cc2cccc3ccccc23)c2ccccc12
1.26 µM (active)

###

Molecular target: Cytochrome P450 2C19 (Homo sapiens)
Test: Cytochrome panel assay with activity outcomes
Conditions: recombinant CYP, pro-luciferin dealkylation, luminescence, p450-cyp2c19; series mostly up to 57.1 µM
Hit rate of the full screen: of about 16,000 compounds, about 5,800 (36%) were called active. Roughly 23% stayed inconclusive and do not appear here. The call rests on the fitted dose curve; in most records, active means well fitted curve in the direction sought with a large enough effect; inconclusive means small, poorly fitted or top-dose-only effect, or effect the other way; inactive means no such curve, though single readings can be large or run the other way. The list shows a part of the results.
// allowed return values: active, inactive

For orientation, consider the following solved cases.
O=C(Cn1nnc(-c2ccccc2)n1)OCc1ccccc1; active
Cc1cccc(/C=N\Nc2cn[nH]c(=O)c2Cl)c1; active
Cc1cnn(-c2cc(N/N=C/c3ccccc3)ncn2)c1; inactive

What is the recorded call for this compound in the test? CN(C)c1ncc2nc(-c3cccs3)c(=O)n(-c3ccccc3)c2n1
inactive

Now try CN1[C@@H](CC(=O)c2ccccc2)CCC[C@@H]1C[C@@H](O)c1ccccc1 .
inactive

Now consider O=C(c1ccc2c(c1)OCCO2)C1CCN(S(=O)(=O)c2ccccc2F)CC1 .
active

Queued: COC(Cn1c(C)c(C(C)=O)c(C(C)=O)c1C)OC
inactive

# repeat for CCC1C(=O)OCC1Cc1cncn1C (stereo unspecified)
active

Entry O=C(NNC(=O)C1CCN(S(=O)(=O)c2ccc(Cl)cc2)CC1)c1ccc(Cl)cc1 please
inactive

Consider next the compound CN1/C(=C\C(=O)COC(=O)Cn2nnc(-c3ccccc3)n2)C(C)(C)c2ccccc21 in the same way.
active

Also check O=C(C[C@@H](c1ccccc1)N1CCCCC1)c1ccccc1
active

###

Molecular target: Cytochrome P450 2C19 (Homo sapiens) (UniProt P33261)
Test: Cytochrome panel assay with activity outcomes
Conditions: recombinant CYP, pro-luciferin dealkylation, luminescence, p450-cyp2c19; series mostly up to 57.1 µM
Among all 16,000 compounds or so, about 5,800 (36%) were called active. Roughly 23% stayed inconclusive and do not appear here. Calls come from the whole dose curve; as a rule, active = well fitted curve in the direction sought with a large enough effect; inconclusive = small, poorly fitted or top-dose-only effect, or effect the other way; inactive = no such curve, though single readings can be large or run the other way. Some of the results follow.
Please state which outcome applies, choosing from true (active), false (inactive)

COc1ccc(CC(NC(C)=O)C(=O)NC2CCN(C(=O)Nc3ccc(Cl)cc3)CC2)cc1OC (stereo not given); false

Recorded call for CCc1cc2c(=O)[nH]cnc2s1 ?
false

###

Target: Cytochrome P450 2C19 (Homo sapiens)
Assay: Cytochrome panel assay with activity outcomes
Settings: recombinant CYP, pro-luciferin dealkylation, luminescence, p450-cyp2c19; series mostly up to 57.1 µM
Experimental: The P450 gene superfamily is involved in the metabolism and clearance of xenobiotics. This assay used various human CYP P450 isozymes to measure the dealkylation of various pro-luciferin substrates to luciferin. The luciferin is then measured by luminescence after the addition of a luciferase detection reagent. […] Inhibitors and some substrates limit the production of luciferin, and decrease measured luminescence. […] 8, Detection, 1 sec, ViewLux luminescent read […]
Among all 16,000 compounds or so, about 5,800 (36%) were called active. Inconclusive results (about 23%) are left out. Calls follow the shape of the dose curve; as a rule, active = well fitted curve in the direction sought with a large enough effect; inconclusive = small, poorly fitted or top-dose-only effect, or effect the other way; inactive = no such curve, though single readings can be large or run the other way. The list shows a part of the results.
Outcomes you can answer with include only these: true = active, false = inactive

COc1ccc(OCC(=O)NNC(=O)c2ccc(-c3ccccc3)cc2)cc1; false
N#Cc1cccc(-c2nc3cnc(N4CCOCC4)nc3n(C3CC3)c2=O)c1; false
Cc1noc(C)c1-c1ccc2ncnc(N(C)Cc3ccco3)c2c1; true
O=C(COc1ccc(-c2ccccc2)cc1)N/N=C/c1ccccc1Br; true
Cc1noc(C)c1-c1ccc2ncnc(N3CCOCC3)c2c1; false

Query compound follows.
For Nc1ccccc1SCc1csc(-c2ccc(Cl)cc2)n1 , what call appears in the results of this test?
true

###

Biological target: Cytochrome P450 2C19 (Homo sapiens)
Test: Cytochrome panel assay with activity outcomes
Settings: recombinant CYP, pro-luciferin dealkylation, luminescence, p450-cyp2c19; series mostly up to 57.1 µM
The whole screen tested about 16,000 compounds, of which about 5,800 (36%) were called active. Roughly 23% stayed inconclusive and do not appear here. Calls follow the shape of the dose curve; as a rule, active = well fitted curve in the direction sought with a large enough effect; inconclusive = small, poorly fitted or top-dose-only effect, or effect the other way; inactive = no such curve, though single readings can be large or run the other way. The list shows a part of the results.
Outcomes you can answer with include only these: Y (active), N (inactive)

O=S(=O)(Nc1ccc2c(c1)OCCO2)c1cccc2cccnc12; Y

In this assay, the call recorded for CCNc1ncc2nc(-c3ccc(OC)cc3)c(=O)n(CCOC)c2n1 was what?
N

And for COC(=O)N1CCC2(CC1)CN(C(=O)Nc1ccc(OC)cc1)C2 ?
N

Also check CCCc1cc(C(=O)Cc2nc3ccccc3s2)c(O)cc1O
Y

Try the compound O=C(CC1C(=O)NCCN1C(=S)Nc1ccccc1)Nc1ccc2c(c1)OCCO2 (configuration not stated)
Y

Repeat with N#Cc1cccc(-c2nc(NCc3ccccc3)c3ccccc3n2)c1
Y

###

Target: Cytochrome P450 2C19 (Homo sapiens) (UniProt P33261)
Test: Cytochrome panel assay with activity outcomes
Details: recombinant CYP, pro-luciferin dealkylation, luminescence, p450-cyp2c19; series mostly up to 57.1 µM
Out of some 16,000 compounds screened, about 5,800 (36%) were called active. Another 23% or so got no clear call; they are omitted. Calls follow the shape of the dose curve; as a rule, active = well fitted curve in the direction sought with a large enough effect; inconclusive = small, poorly fitted or top-dose-only effect, or effect the other way; inactive = no such curve, though single readings can be large or run the other way. Some of the results follow.
Write down the outcome that applies. Available outcomes: label 1 for active, label 0 for inactive

CC(=O)N(CC(O)CN(C(C)=O)c1c(I)c(C(=O)NC[C@@H](O)CO)c(I)c(C(=O)NC[C@@H](O)CO)c1I)c1c(I)c(C(=O)NC[C@@H](O)CO)c(I)c(C(=O)NC[C@@H](O)CO)c1I; label 0

How did this test come out for COc1c(O)cc2c(c1O)[C@@H]1O[C@@H](CO)[C@@H](O)[C@@H](O)[C@@H]1OC2=O ?
label 0

Can you check COCCn1c(=O)c(C)nc2cnc(N3CCN(C)CC3)nc21 next?
label 0

For CC(C)OCCCN1CN(S(=O)(=O)c2cccc(Cl)c2)c2nc3ccccc3nc21 then?
label 1

Now try COc1ccc2[nH]cc(CCNc3ccnc(-c4ccc(N(C)C)cc4)n3)c2c1 .
label 1

Ok, now N#CCCn1c(=O)c(-c2cc(F)cc(F)c2)nc2cnc(Nc3ccccc3)nc21
label 0

Next compound up: COc1cc(OC)c(C(=O)CCCCN2CCC3(CC2)NC(=O)NC3=O)cc1NS(=O)(=O)c1ccc(C(F)(F)F)cc1
label 0

Likewise for NC(=O)c1ncn([C@@H]2O[C@@H](CO)[C@@H](O)[C@H]2O)c1O ?
label 0
